- System tested: F508delCFTR (Homo sapiens, UniProt P13569, DEL508-508)
- Construct: expressed in transfected cells; host or cells: CFBE41o- human lung-derived epithelial cells (CFBE4lo-F508delCFTR-HRP), doxycycline-inducible
- Sequence (P13569 with tags, fused parts or gaps DEL508-508): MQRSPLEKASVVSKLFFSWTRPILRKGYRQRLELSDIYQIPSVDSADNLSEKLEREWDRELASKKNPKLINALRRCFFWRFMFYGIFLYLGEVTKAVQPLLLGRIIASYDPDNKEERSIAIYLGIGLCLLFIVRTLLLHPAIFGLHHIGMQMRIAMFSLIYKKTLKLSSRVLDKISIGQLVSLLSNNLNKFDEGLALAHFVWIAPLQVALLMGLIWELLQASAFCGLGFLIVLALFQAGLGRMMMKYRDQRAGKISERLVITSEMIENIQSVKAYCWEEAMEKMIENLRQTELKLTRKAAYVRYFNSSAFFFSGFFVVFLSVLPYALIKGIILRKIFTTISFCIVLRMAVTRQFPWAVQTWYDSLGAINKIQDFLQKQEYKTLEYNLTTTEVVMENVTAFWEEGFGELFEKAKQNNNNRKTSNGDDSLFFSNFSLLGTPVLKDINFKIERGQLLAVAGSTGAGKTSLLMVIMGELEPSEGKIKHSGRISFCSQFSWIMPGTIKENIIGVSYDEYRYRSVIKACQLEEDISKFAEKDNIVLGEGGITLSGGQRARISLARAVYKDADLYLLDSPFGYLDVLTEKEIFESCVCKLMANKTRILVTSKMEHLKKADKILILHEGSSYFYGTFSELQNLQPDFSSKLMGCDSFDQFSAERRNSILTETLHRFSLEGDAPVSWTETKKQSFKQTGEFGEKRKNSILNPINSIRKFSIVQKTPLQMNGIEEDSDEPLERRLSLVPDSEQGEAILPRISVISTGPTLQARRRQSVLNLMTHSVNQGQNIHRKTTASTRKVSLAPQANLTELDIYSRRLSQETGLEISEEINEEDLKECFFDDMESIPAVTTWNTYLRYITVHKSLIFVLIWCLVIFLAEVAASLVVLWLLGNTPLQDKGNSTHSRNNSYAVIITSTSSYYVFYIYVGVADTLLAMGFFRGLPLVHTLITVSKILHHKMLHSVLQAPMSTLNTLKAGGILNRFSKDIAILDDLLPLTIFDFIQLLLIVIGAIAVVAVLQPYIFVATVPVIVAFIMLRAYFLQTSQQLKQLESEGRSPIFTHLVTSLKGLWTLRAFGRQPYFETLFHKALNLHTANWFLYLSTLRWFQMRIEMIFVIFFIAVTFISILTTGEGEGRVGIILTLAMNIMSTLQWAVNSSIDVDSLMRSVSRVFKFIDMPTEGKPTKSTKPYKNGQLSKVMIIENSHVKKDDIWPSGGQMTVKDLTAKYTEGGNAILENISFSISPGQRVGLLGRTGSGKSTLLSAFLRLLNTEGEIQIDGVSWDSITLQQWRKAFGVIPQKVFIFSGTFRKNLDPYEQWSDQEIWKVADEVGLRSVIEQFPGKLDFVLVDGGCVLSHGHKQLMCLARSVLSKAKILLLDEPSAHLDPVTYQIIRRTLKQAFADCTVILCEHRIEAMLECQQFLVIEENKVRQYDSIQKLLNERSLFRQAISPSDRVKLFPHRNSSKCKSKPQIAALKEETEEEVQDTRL
- Test protocol: Cell Surface Expression-Horse Radish Peroxidase (CSE-HRP) Assay
- Format: cell-based
- Experimental parameters: with co-corrector (2 μM of 3-[(2R,4R)-4-({[1-(2,2-difluoro-1,3-benzodioxol-5-yl)cyclopropyl]carbonyl}amino)-7-methoxy-3,4-dihydro-2H-chromen-2-yl]benzoic acid); read-out: EC50 (with co-corrector)
Reported values of EC50 for individual entries

[[record]]
compound = "COc1ccc(C(C)(C)C)cc1CN[C@H]1[C@H](C(C)(C)C)[C@@H](C(=O)O)N(C(=O)[C@@H](C)c2ccccc2)[C@H]1c1cccnc1OC"
value_reported = "1000 to 10000 nM"

[[record]]
compound = "COc1ccc(OC(F)(F)F)cc1CN[C@H]1[C@H](C(C)(C)C)[C@@H](C(=O)O)N(C(=O)OC(C)C)[C@H]1c1ccccc1"
value_reported = "1000 to 10000 nM"

[[record]]
compound = "COc1ccc(C(C)(C)C)cc1CN[C@@H]1[C@@H](C(C)(C)C)[C@@H](C(=O)O)N(C(=O)[C@H](OC)c2ccccc2)[C@H]1c1ccccc1"
value_reported = "1000 to 10000 nM"

[[record]]
compound = "COc1ncc(C2CCC2)cc1CN[C@H]1[C@H](C(C)(C)C)[C@@H](C(=O)O)N(C(=O)C2CCCCC2C(F)(F)F)[C@H]1c1ccccc1 (some centres unmarked)"
value_reported = "< 1000 nM"

[[record]]
compound = "COc1cc(C(F)(F)F)ccc1CN[C@H]1[C@H](C(C)(C)C)[C@@H](C(=O)O)N(C(=O)C(C)c2ccccc2)[C@H]1c1ccccc1 (relative stereo)"
value_reported = "1000 to 10000 nM"

[[record]]
compound = "COc1ccc(OC(F)(F)F)cc1CN[C@H]1[C@H](C(C)(C)C)[C@@H](C(=O)O)N(C(=O)C2CCCCC2)[C@H]1c1cccnc1OC"
value_reported = "1000 to 10000 nM"

[[record]]
compound = "C=CCOC(=O)N1[C@H](C(=O)O)[C@@H](C(C)(C)C)[C@H](NCc2cc(C(C)(C)C)ccc2OC)[C@@H]1c1ccccc1"
value_reported = "1000 to 10000 nM"

[[record]]
compound = "COc1ncc(C(F)(F)F)cc1CN[C@H]1[C@H](C(C)(C)C)[C@@H](C(=O)O)N(C(=O)[C@H]2CCCCO2)[C@H]1c1ccccc1C(C)C"
value_reported = "< 1000 nM"

[[record]]
compound = "COc1ccc(C(C)c2ccccc2)cc1CN[C@H]1[C@H](C(C)(C)C)[C@@H](C(=O)O)N(C(=O)C2CCCCC2)[C@H]1c1ccccc1 (some centres unmarked)"
value_reported = "< 1000 nM"

[[record]]
compound = "COc1cc(CN[C@H]2[C@H](C(C)(C)C)[C@@H](C(=O)O)N(C(=O)C3CCCCC3)[C@H]2c2ccccc2)cc(OC)c1"
value_reported = "1000 to 10000 nM"


Q: Give the reported value of EC50 for this record: COc1ccc(C2(C)CCC2)cc1CN[C@H]1[C@H](C(C)(C)C)[C@@H](C(=O)O)N(C(=O)C2CCCCC2)[C@H]1c1cccnc1OC
A: < 1000 nM

Q: Input COc1ncc(C(C)(C)C)cc1N[C@H]1[C@H](C(C)(C)C)[C@@H](C(=O)O)N(C(=O)C2CCCCC2)[C@H]1c1ccccc1 , output reported EC50.
A: 1000 to 10000 nM

Q: Entry COc1cnc(C2CCCCC2)cc1CN[C@H]1[C@H](C(C)(C)C)[C@@H](C(=O)O)N(C(=O)C2CCCCC2)[C@H]1c1ccccc1 needs its EC50 filled in; supply it.
A: 1000 to 10000 nM

Where do the numbers come from? From patent US20180099931A1.
